# System Under Test: Mu-type opioid receptor (Rattus norvegicus, UniProt P33535)
# Sequence (P33535 whole entry): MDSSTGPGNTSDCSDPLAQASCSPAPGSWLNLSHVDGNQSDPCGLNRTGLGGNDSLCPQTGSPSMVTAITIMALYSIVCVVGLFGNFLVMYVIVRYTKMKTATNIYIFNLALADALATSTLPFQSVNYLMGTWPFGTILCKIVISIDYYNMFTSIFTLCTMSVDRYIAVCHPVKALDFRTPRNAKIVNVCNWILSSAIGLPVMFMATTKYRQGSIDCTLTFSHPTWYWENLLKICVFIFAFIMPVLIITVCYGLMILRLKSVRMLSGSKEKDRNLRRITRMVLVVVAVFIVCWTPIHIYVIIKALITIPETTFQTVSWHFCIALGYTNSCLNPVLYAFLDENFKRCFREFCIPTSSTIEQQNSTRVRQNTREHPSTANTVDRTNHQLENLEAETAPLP
# Run Description: Agonist activity at rat mu opioid receptor expressed in rat C6 cell membranes assessed as stimulation of [35S]GTPgammaS binding measured after 1 hr
pEC50: −log10 of the molar value.
Listing of recorded pEC50 by entry.

Smi | pEC50
CC(=O)N1CC[C@@H](NC(=O)[C@@H](N)Cc2c(C)cc(O)cc2C)c2cc(Cc3ccc4c(c3)OCCO4)ccc21.O=C(O)C(F)(F)F | 7.89
CC(=O)N1CC[C@@H](NC(=O)[C@@H](N)Cc2c(C)cc(O)cc2C)c2cc(CN3CCc4ccccc4C3)ccc21.O=C(O)C(F)(F)F | 8.22
CC(=O)N1CC[C@@H](NC(=O)[C@@H](N)Cc2c(C)cc(O)cc2C)c2cc(Cc3cc4ccccc4o3)ccc21 | 8.72
Cc1cc(O)cc(C)c1C[C@H](N)C(=O)N[C@@H]1CCN(C(=O)C2CC2)c2ccc(CN3CCc4ccccc4C3)cc21.O=C(O)C(F)(F)F | 9.28
Cc1cc(O)cc(C)c1C[C@H](N)C(=O)N[C@@H]1CCN(C(=O)c2ccccc2)c2ccc(CN3CCc4ccccc4C3)cc21.O=C(O)C(F)(F)F | 8.38
Cc1cc(O)cc(C)c1C[C@H](N)C(=O)N[C@@H]1CCN(C(=O)c2ccccc2)c2ccc(Cc3cnc4ccccc4c3)cc21.O=C(O)C(F)(F)F | 9.00
Cc1cc(O)cc(C)c1C[C@H](N)C(=O)N[C@@H]1CCNc2ccc(Cc3cc4ccccc4o3)cc21.O=C(O)C(F)(F)F | 8.96
Cc1cc(O)cc(C)c1C[C@H](N)C(=O)N[C@@H]1CCN(S(C)(=O)=O)c2ccc(CN3CCc4ccccc4C3)cc21.O=C(O)C(F)(F)F | 9.92
Cc1cc(O)cc(C)c1C[C@H](N)C(=O)N[C@@H]1CCN(C(=O)C2CC2)c2ccc(Cc3cnc4ccccc4c3)cc21.O=C(O)C(F)(F)F | 9.47

* * *

# System Under Test: Delta-type opioid receptor (Rattus norvegicus, UniProt P33533)
# Sequence (P33533 whole entry): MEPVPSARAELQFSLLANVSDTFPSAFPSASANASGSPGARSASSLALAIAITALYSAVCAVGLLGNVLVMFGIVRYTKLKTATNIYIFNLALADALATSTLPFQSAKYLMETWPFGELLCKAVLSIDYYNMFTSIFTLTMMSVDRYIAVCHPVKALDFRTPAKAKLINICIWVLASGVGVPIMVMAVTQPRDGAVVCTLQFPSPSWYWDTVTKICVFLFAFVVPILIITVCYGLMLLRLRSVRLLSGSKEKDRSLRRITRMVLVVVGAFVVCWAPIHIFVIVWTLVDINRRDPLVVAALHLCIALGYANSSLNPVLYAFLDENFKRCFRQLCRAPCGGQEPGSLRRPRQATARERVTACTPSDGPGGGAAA
# Run Description: Displacement of [3H]diprenorphine from rat delta opioid receptor expressed in rat C6 cell membranes measured after 1 hr by liquid scintillation counting method
Measurement Label: Ki

Smi | System Under Test | Observed Result
Cc1cc(O)cc(C)c1C[C@H](N)C(=O)N[C@@H]1CCN(S(C)(=O)=O)c2ccc(CN3CCc4ccccc4C3)cc21.O=C(O)C(F)(F)F | Delta-type opioid receptor (Rattus norvegicus, UniProt P33533) | 0.98 nM
Cc1cc(O)cc(C)c1C[C@H](N)C(=O)N[C@@H]1CCN(S(C)(=O)=O)c2ccc(Cc3cc4ccccc4o3)cc21.O=C(O)C(F)(F)F | Delta-type opioid receptor (Rattus norvegicus, UniProt P33533) | 1 nM
Cc1cc(O)cc(C)c1C[C@H](N)C(=O)N[C@@H]1CCN(S(C)(=O)=O)c2ccc(Cc3ccccc3)cc21.O=C(O)C(F)(F)F | Delta-type opioid receptor (Rattus norvegicus, UniProt P33533) | 0.41 nM
